- assay protocol: protein stability index of a GFP-peptide fusion (GPS, HEK-293T) (PSI 1-6); higher = more stable;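 also: 24-mer peptide tiles fused after GFP, lentivirally expressed, FACS-sorted into six equal bins by GFP/DsRed ratio, decoded by Illumina sequencing, PSI is the read-weighted mean bin number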
- test parameters: treatment: MLN4924 1 uM, 8 h; c terminus: a fixed tail appended
Record form. Attribute: protein stability index. Fill in for each entry.

Which protein stability index reading was recorded for the sequence ILFYCHFPDLLLTKRDSFLKRLYR [ALG2] ?
2.18

What protein stability index value was documented for this sequence, FEQTPALTKHEWTEALGCDPPLSQ [ZNF8] ?
4.6

I am curious: what protein stability index value has been reported for ELSSVHPPHYFFTYRIRIEMSKDA [FBXO3] ?
2.18

Which value of protein stability index has been reported for KMREFTKTIKRPFGVKYNPYTRSI [TPH1] in the records?
2.31

Give its protein stability index value. Item: SGTVAAVLTLPFDVVKTQRQVALG [SLC25A39]
2.27

Field request: protein stability index | item: MLKFLAKGEVPKGSCEDEPMDSTM [ATE1]
4.36

Query: protein stability index; subject: DTFHQDNQPSGLIRTYLGRSPLVS [RHOBTB3]
3.24

Quick one: protein stability index for LGDEICCWSFYGQGRKIAEVCCTS [KCTD13] ?
2.1

Requested field: protein stability index. Item: ICGIICIGPNVLMVHKRSHTGERP [IKZF1]
2.02

Quick one: protein stability index of QQDFLGLPEELRRLSGLSSVGHNW [C22orf15] ?
3.11

# query: protein stability index of entry ERIRLLRQKREAAARKKYNLLQDS [C18orf25]
3.6

Which protein stability index value is on record for AEEESSGGEEEDEDENIEVVYSKA [EIF5] ?
5.25

// protein stability index lookup, key: ELEIELQSQLSMKAGLENSLAETE [KRT15]
4.75

Give its protein stability index value. Item: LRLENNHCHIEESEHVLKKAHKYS [VPS39]
3.31

What protein stability index value was documented for this sequence, CSCLSDILRFIYSGAFQWEELEED [RHOBTB3] ?
1.88

protein stability index for KSFILDFMLRYLYSQKESGHSNWL [ATL3] ?
3.07

// lookup protein stability index for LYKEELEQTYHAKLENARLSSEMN [LMNB1]
3.62

Quick one: protein stability index for ERSRGRSISRGRHARTHPQTALLE [MATN2] ?
4.72

// query protein stability index value for entry EQWDRLLVLYPTSLAIFSEELDGL [PLEKHN1]
2.44

Tell me the measured protein stability index of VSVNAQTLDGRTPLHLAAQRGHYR [RIPK4] , please.
3.77

Data request, read-out protein stability index, for PEERLEKQNEKLNNQEEETEFKEL [CCDC89]
5.48

I have this sequence here, FEGRTPMHVACQHGQENIVRILLR [RIPK4] , and I need its recorded protein stability index.
2.95

Item under review: MPEFSSDSTMRILSNLVQHILKKY [RTP4] . Reported protein stability index?
2.52

What value of protein stability index has been recorded for this entry: MSQGPPTGESSEPEAKVLHTKRLY [SMG5]
4.94

What protein stability index value was documented for this sequence, ILEVLRSSPMVQVDEKGEKVRPSH [LARP4] ?
3.71

Query: protein stability index; subject: RYESLTDPSKLDSGKELKIDIIPN [HSP90AB1]
4.31

Which protein stability index is reported for this sequence? CSHNLCQACARNILVQTPESESPQ [TRIM9]
3.85
